Parameter: self-cleavage. Scope: all listed entries.
B1: Hairpin Ribozyme (parent)
chain: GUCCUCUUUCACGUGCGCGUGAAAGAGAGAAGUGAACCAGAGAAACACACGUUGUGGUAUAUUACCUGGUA

# Variants of: B1
# Assay Comment: self-cleavage, relative activity (ratio to wild type); higher = more cleavage; co-transcriptional
Give your answer as a number; write no unit.

Completed entries (count: 5):
{"columns": ["Variant Identifier", "Reported Property", "Experimental Value"],
 "data": [
  ["C6G U70G", "self-cleavage", 0.361],
  ["G54U A59U", "self-cleavage", 0.178],
  ["G29A A35U", "self-cleavage", 0.0646],
  ["A35U A71G", "self-cleavage", 0.962],
  ["U2G A36C", "self-cleavage", 0.208]
]}

Suppose we examine the variant C38A U70A ; what self-cleavage value has been reported? 0.165

Suppose we examine the variant C6A G27C ; what self-cleavage value has been reported? 0.118

Suppose we examine the variant G56U G69U ; what self-cleavage value has been reported? 0.207

Suppose we examine the variant U9G A43G ; what self-cleavage value has been reported? 0.116

Suppose we examine the variant C37G A59G ; what self-cleavage value has been reported? 0.0514
